Here the recorded percentage of EdU-negative is given for each entry.
System: MCF7;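 note: secreted proteins added to cultured cells, EdU pulse at the end, nuclei found by Hoechst imaging, EdU status from nuclear versus surrounding ring intensity ratio, PBS as neutral control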
TEST PROTOCOL: percentage of EdU-negative (G0-arrested) nuclei per well, 72 h; higher = more G0 arrest
PROTOCOL CONDITIONS: protein concentration 0.03125 µM; reference: sequence is the full UniProt precursor, the tested protein was the secreted form or ectodomain
Reply numerically in %, unit not repeated.

These solved cases illustrate the format of a correct answer.
MVGPAPRRRLRPLAALALVLALAPGLPTARAGQTPRPAERGPPVRLFTEEELARYGGEEEDQPIYLAVKGVVFDVTSGKEFYGRGAPYNALTGKDSTRGVAKMSLDPADLTHDTTGLTAKELEALDEVFTKVYKAKYPIVGYTARRILNEDGSPNLDFKPEDQPHFDIKDEF [Q9UMX5]
22.8
MKYTSYILAFQLCIVLGSLGCYCQDPYVKEAENLKKYFNAGHSDVADNGTLFLGILKNWKEESDRKIMQSQIVSFYFKLFKNFKDDQSIQKSVETIKEDMNVKFFNSNKKKRDDFEKLTNYSVTDLNVQRKAIHELIQVMAELSPAAKTGKRKRSQMLFRGRRASQ
39.5
MGSSSFLVLMVSLVLVTLVAVEGVKEGIEKAGVCPADNVRCFKSDPPQCHTDQDCLGERKCCYLHCGFKCVIPVKELEEGGNKDEDVSRPYPEPGWEAKCPGSSSTRCPQK [Q8WWY7]
26.5
MGLLLPLALCILVLCCGAMSPPQLALNPSALLSRGCNDSDVLAVAGFALRDINKDRKDGYVLRLNRVNDAQEYRRGGLGSLFYLTLDVLETDCHVLRKKAWQDCGMRIFFESVYGQCKAIFYMNNPSRVLYLAAYNCTLRPVSKKKIYMTCPDCPSSIPTDSSNHQVLEAATESLAKYNNENTSKQYSLFKVTRASSQWVVGPSYFVEYLIKESPCTKSQASSCSLQSSDSVPVGLCKGSLTRTHWEKFVSVTCDFFESQAPATGSENSAVNQKPTNLPKVEESQQKNTPPTDSPSKAGPRGSVQYLPDLDDKNSQEKGPQEAFPVHLDLTTNPQGETLDISFLFLEPMEEKLVVLPFPKEKARTAECPGPAQNASPLVLPP [Q9UGM5]
26.5
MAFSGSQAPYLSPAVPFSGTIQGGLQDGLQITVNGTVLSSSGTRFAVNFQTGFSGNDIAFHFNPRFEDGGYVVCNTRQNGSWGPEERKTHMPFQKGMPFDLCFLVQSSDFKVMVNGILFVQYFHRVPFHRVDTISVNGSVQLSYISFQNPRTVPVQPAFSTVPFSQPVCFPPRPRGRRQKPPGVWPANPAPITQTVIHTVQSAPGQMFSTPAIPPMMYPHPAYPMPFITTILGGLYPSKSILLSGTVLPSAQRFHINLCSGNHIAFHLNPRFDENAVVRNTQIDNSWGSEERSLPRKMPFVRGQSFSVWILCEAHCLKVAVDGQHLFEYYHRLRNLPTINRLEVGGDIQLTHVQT
26.3

Let's switch to this sequence now.
## Input State percentage of EdU-negative (MCF7) of `MANRGPAYGLSREVQQKIEKQYDADLEQILIQWITTQCRKDVGRPQPGRENFQNWLKDGTVLCELINALYPEGQAPVKKIQASTMAFKQMEQISQFLQAAERYGINTTDIFQTVDLWEGKNMACVQRTLMNLGGLAVARDDGLFSGDPNWFPKKSKENPRNFSDNQLQEGKNVIGLQMGTNRGASQAGMTGYGMPRQIL` .
## Output 25.9
